- targetSystem: Insulin receptor substrate 1 (Homo sapiens)
- Sequence (P35568 whole entry, the tested form may be a part): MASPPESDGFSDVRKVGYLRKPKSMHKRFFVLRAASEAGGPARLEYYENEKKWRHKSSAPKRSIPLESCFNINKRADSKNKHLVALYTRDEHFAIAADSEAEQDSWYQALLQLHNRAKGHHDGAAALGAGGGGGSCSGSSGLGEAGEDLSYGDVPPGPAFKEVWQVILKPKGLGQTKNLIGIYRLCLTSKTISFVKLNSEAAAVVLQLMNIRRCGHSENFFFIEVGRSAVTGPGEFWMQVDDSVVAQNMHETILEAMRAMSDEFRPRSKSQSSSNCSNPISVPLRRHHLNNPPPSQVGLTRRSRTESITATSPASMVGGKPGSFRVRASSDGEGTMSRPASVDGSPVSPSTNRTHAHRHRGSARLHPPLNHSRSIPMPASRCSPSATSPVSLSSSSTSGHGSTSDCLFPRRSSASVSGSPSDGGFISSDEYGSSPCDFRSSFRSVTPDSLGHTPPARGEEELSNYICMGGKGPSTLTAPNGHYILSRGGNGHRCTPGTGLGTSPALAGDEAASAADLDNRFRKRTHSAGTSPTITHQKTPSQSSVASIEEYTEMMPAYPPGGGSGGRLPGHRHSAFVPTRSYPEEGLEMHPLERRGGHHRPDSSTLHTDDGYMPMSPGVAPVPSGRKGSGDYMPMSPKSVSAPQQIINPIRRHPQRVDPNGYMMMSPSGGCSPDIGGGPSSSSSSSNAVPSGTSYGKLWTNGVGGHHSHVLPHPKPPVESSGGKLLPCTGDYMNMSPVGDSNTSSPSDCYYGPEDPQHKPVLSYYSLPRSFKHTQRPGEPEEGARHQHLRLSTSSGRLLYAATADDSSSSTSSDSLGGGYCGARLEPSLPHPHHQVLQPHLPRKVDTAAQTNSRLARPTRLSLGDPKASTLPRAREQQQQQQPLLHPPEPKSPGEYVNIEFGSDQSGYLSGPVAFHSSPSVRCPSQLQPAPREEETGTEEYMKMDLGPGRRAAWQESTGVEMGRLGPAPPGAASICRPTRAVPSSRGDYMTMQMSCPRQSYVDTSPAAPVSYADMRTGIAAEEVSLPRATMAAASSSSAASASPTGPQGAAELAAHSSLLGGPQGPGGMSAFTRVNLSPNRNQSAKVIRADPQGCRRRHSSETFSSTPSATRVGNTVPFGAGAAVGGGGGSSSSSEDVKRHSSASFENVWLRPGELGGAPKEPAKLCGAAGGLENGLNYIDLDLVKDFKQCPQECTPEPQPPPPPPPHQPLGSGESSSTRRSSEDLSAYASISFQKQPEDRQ
- experimentNotes: Inhibition of HGF-induced IRS1 phosphorylation in human T47D cells assessed as pSer312 IRS1/total-IRS1 ratio level at 20 uM pre-incubated for 4 hrs before stimulation with HGF for 20 mins (reference value: 100 +/- 0.02%)
- Type: cell-based
- Set-up: scale not given: the % may be the effect or the level left
metricName: Activity (%)

molecule | metricName | valueObserved
CCc1ccc(C(=O)OC)cc1CSc1nnc(-c2ccc(C(F)(F)F)cc2)n1Cc1ccoc1 | Activity | 64.4
CCCCCCCCCCCCc1ccc(S(=O)(=O)Nc2nnc(C(=O)OCC)s2)cc1 | Activity | 78.4
Cc1cc2ncc(-c3cnc(SCCS(=O)(=O)c4ccc(Cl)cc4)nc3)c(C)n2n1 | Activity | 98.2
CCCCCCCCCCCCc1ccc(S(=O)(=O)Nc2nnc(S(N)(=O)=O)s2)cc1 | Activity | 115
O=S(=O)(NCc1csc(-c2cccs2)n1)c1ccc(N2CCOCC2)nc1 | Activity | 101
O=S(=O)(NCc1csc2ccc(Cl)cc12)c1cc(S(=O)(=O)c2ccccc2)cs1 | Activity | 46.5
CCCCCCCCCCCCCCCCCCOC[C@H](COP(=O)(O)O[C@H]1[C@H](O)[C@@H](O)[C@H](O)C[C@H]1O)OC | Activity | 116
CCCCCCCCCCCCc1ccc(S(=O)(=O)Nc2nncs2)cc1 | Activity | 61.3
O=c1[nH]nc(SCc2csc(-c3ccccc3)n2)n1Cc1ccco1 | Activity | 40.7
CCCCCCCCCCCCc1ccc(S(=O)(=O)Nc2nnc(CC(=O)OCC)s2)cc1 | Activity | 60.6
COc1cc(NS(=O)(=O)c2ccc(NS(=O)(=O)c3c(C)noc3C)cc2)nc(OC)n1 | Activity | 91.7
CS(=O)(=O)CCSc1ncccc1C(=O)Sc1ccc(Cl)cc1Cl | Activity | 79.7
Cc1nnc(NS(=O)(=O)c2ccc(NS(=O)(=O)c3ccc4ccccc4c3)cc2)s1 | Activity | 89.9
O=C(O)c1ccccc1C(=O)Nc1ccccc1SCCS(=O)(=O)c1ccc(Cl)cc1 | Activity | 75.6
CS(=O)(=NS(=O)(=O)c1ccc(-c2ccccn2)s1)c1ccc(Cl)cc1 (stereo unspecified) | Activity | 102
CCCCCCCCCCCCc1ccc(S(=O)(=O)Nc2nnc(CC(=O)O)s2)cc1 | Activity | 69
Cc1noc(C)c1NC(=O)NCc1csc(-c2cccs2)n1 | Activity | 100
Cc1onc(-c2ccccc2)c1-c1nc(CSc2nc3ccccc3[nH]2)no1 | Activity | 31.1
Cn1c(Cc2ccsc2)nnc1SCC(=O)Nc1cc(Cl)cc(Cl)c1 | Activity | 84.8
Cc1nc(-c2ccc(S(=O)(=O)N3CCN(C4c5ccccc5-c5ccccc54)CC3)s2)cs1 | Activity | 98.7
Cn1cnc(S(=O)(=O)Nc2ccccc2SCCS(=O)(=O)c2ccc(Cl)cc2)c1 | Activity | 83.2

###

- targetSystem: Insulin receptor substrate 1 (Homo sapiens)
- experimentNotes: Binding affinity to recombinant human IRS1 PH domain expressed in Escherichia coli BL21 (DE3) by surface plasmon resonance assay
- testContext: read-out: Kd
# maps each entry to its Kd

smilesRepr | targetSystem | Kd (nM)
CS(=O)(=O)CCSc1ncccc1C(=O)Sc1ccc(Cl)cc1Cl | Insulin receptor substrate 1 (Homo sapiens) | 1600
CCCCCCCCCCCCc1ccc(S(=O)(=O)Nc2nnc(CC(=O)OCC)s2)cc1 | Insulin receptor substrate 1 (Homo sapiens) | 150
Cc1onc(-c2ccccc2)c1-c1nc(CSc2nc3ccccc3[nH]2)no1 | Insulin receptor substrate 1 (Homo sapiens) | 120
CCCCCCCCCCCCc1ccc(S(=O)(=O)Nc2nnc(C(=O)OCC)s2)cc1 | Insulin receptor substrate 1 (Homo sapiens) | 50
O=S(=O)(NCc1csc(-c2cccs2)n1)c1ccc(N2CCOCC2)nc1 | Insulin receptor substrate 1 (Homo sapiens) | 16200
Cn1cnc(S(=O)(=O)Nc2ccccc2SCCS(=O)(=O)c2ccc(Cl)cc2)c1 | Insulin receptor substrate 1 (Homo sapiens) | 16400
CCCCCCCCCCCCc1ccc(S(=O)(=O)Nc2nnc(CC(=O)O)s2)cc1 | Insulin receptor substrate 1 (Homo sapiens) | 50
